biological target: Sphingosine 1-phosphate receptor 2 (Homo sapiens, UniProt O95136); assay: Binding affinity to S1PR2 (unknown origin) assessed as dissociation constant measured for 60 secs by surface plasmon resonance assay
Sequence (O95136 whole entry): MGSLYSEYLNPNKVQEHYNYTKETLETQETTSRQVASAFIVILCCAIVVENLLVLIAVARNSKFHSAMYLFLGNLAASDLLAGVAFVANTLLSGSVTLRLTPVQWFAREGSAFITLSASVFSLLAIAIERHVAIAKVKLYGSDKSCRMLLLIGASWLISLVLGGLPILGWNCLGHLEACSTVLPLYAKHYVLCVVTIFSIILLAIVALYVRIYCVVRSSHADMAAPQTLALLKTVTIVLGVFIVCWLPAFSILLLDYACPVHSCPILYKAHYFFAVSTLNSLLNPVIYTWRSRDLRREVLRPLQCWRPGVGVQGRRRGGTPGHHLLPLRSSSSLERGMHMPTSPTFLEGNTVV
Record form. Attribute: koff. Fill in for each entry.
Provide the measurement as a number trailed by its unit.

Guide cases for koff, answers given:
[
  {
    "smiles.structure": "CNc1cc(C)nc(NNC(=O)Nc2cc(Cl)nc(Cl)c2)n1",
    "koff": "0.236 s⁻¹"
  },
  {
    "smiles.structure": "CC(C)Oc1cc(NC(=O)Nc2cc(Cl)nc(Cl)c2)cc(Cl)n1",
    "koff": "0.119 s⁻¹"
  }
]

Provide reported koff for each item, in the same order as listed.
1. O=C(Nc1cc(Cl)nc(Cl)c1)Nc1cc2ccc(-c3ccccc3)cn2n1
2. O=C(NNc1nc(Nc2ccccc2)nc(N2CCCC2)n1)Nc1cc(Cl)nc(Cl)c1
3. O=C(NNc1nc(N2CCOCC2)c2ccn(C3CC3)c2n1)Nc1cc(Cl)nc(Cl)c1
4. COc1c(Cl)cc(NC(=O)Nc2cc(Cl)nc(Cl)c2)cc1Cl
5. CCOc1cc(NC(=O)Nc2cc(Cl)nc(Cl)c2)cc(Cl)n1
6. O=C(Nc1cc(Cl)cc(Cl)c1)Nc1cc(Cl)nc(Cl)c1
7. CN1CCN(C(=O)Nc2cc(Cl)nc(Cl)c2)CC1

Reply:
1. 0.201 s⁻¹
2. 0.133 s⁻¹
3. 0.133 s⁻¹
4. 0.312 s⁻¹
5. 0.102 s⁻¹
6. 0.116 s⁻¹
7. 0.106 s⁻¹
